Values were extracted from PubChem BioAssay.

Tested on: Sam68 (KHDRBS1)
Test: Sam68 small-molecule binders, primary screen, biochemical, small-molecule microarray, 635 nm fluorescence (AID 1125);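 further: score merges 667 nm channel intensity with signal to noise over triplicate slides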
Conditions: small-molecule microarray binding, higher = more signal
Assign y to entries whose composite z-score meets or exceeds 1; assign n to the rest.

Reference set, count: 10
CC(C)[Si]1(C(C)C)OCc2cc(-c3ccc(-c4ccc(Cl)c(Cl)c4)o3)nc(-c3ccc(Oc4ccccc4)cc3)c21
n
CC(C)C[C@@H]1NC(=O)[C@@H]2C[C@H](C(=O)NCCCCCNC(=O)CS)[C@H](c3ccc(O)cc3)N2C1=O
n
CN1C(=O)C2C(C1=O)C1C=C(CCCO)C2C(C2CC2)N1C (stereo not given)
n
COc1ccc([Si](C)(C)[C@H]2[C@H](CC(=O)N(CCO)Cc3ccccc3)O[C@@]3(C(=O)N(Cc4ccc(N5C(=O)c6cccc7cccc5c67)cc4)c4ccccc43)[C@@H]2C)cc1
n
CCCNC(=O)[C@@]1(Sc2ccc(C)cc2)CC(=O)N(Cc2cc(C(F)(F)F)cc(C(F)(F)F)c2)[C@@H]1c1ccc(CO)cc1
n
C=CC[C@]12N=C(c3ccc(OCCCO)cc3)O[C@H]1c1ccccc1N(CCC)C2=O
y
COC(=O)[C@H](Cc1ccccc1)N1CC(C)(OC)O[C@@H](Cc2ccccc2)[C@H]1/C=C/C1CC1 (stereo not given in full)
n
COC(=O)[C@@]1(Cc2ccc(F)cc2)[C@H]2c3cc(C(=O)N4CCCC4)n(Cc4ccc(OC(F)(F)F)cc4)c3C[C@H]2CN1C(=O)c1ccccc1
n
CN(C)CCCC[C@@H]1NC(=O)[C@H]2C[C@@H](C(=O)NCCCCCCNC(=O)CS)[C@@H](c3cccc(OCCO)c3)N2C1=O
n
C=C(COC)/C(=C/C[C@@H](OC(C)=O)c1cccc(OCCO)c1)c1cnc2ccccc2c1
n

Challenge: Quick check, composite z-score >= 1? `COCCOC(=O)N1C(=O)[C@@]2(c3cc(C#CC4=CCCCC4)ccc31)[C@H](C(=O)N1CCCCCCC1)[C@H]1C(=O)O[C@H](c3ccccc3)[C@H](c3ccccc3)N1[C@@H]2c1ccccc1OCCO`
Response given: y

Challenge: // inclusive: composite z-score at least 1? input: CCCCCN1CC=CC23O[C@@H]4/C=C\CCCOC(=O)C4[C@H]2C(=O)N(CCCCCO)[C@@H]3C1=O (stereo not given in full)
Response given: n

Challenge: Is it the case that COc1ccc(C(O)C2C=CC3C(=O)N(c4ccccc4)C(=O)C3N2Nc2ccccc2F)c2ccccc12 (stereo not given) has composite z-score reaching or exceeding 1?
Response given: y

----------
// z-score lookup, one value per entry
Experiment: basal HepG2 mitochondrial membrane potential changes, profiling panel, cell-based, JC-1 fluorescence, 24 h, 100 nL compound (AID 1167); further: test concentration not given here
Conditions: higher = more signal
Simply state the number, no unit and no words.

C=CCOC(=O)[C@H]1[C@@H]2C(=O)O[C@@H](c3ccccc3)[C@@H](c3ccccc3)N2[C@@H](c2ccc(OCCOC(=O)[C@H]3C[C@H]4C(=O)NCC(=O)N4[C@H]3c3cccc(OCCO)c3)cc2)[C@]12C(=O)Nc1ccc(I)cc12
-0.777
CCCCC(=C=CC[C@@H](O)c1ccccc1OCCO)C[C@@H](O)c1ccccn1
-0.16
C=CCNC(=O)[C@H]1[C@@H]2C(=O)O[C@@H](c3ccccc3)[C@@H](c3ccccc3)N2[C@@H](c2ccc(O)cc2)[C@]12C(=O)N(C(=O)OCCOC)c1ccc(C#Cc3ccc(OC)cc3)cc12
-1.62

Challenge: Quick check: z-score of CCCC1(C(=O)OC)C=C2C(=C(C(C)C)C(=O)C2C)CN1 (configuration not stated) ?
Response given: -1.45

Challenge: Consider the compound CC(C)c1ccc(NN2C(C(O)C3CCCCC3)C=CC3C(=O)N(c4ccccc4)C(=O)C32)cc1 (configuration not stated) and give its measured z-score.
Response given: -1.49

Challenge: Which z-score is listed for `CC(C)[Si](C#Cc1ccccc1)(O[C@H](c1ccccc1)c1cn(Cc2ccccc2)nn1)C(C)C` ?
Response given: -1.19

Challenge: Name the recorded z-score for `CC(C)N1C(=O)[C@@]2(Cc3ccccc31)c1ccccc1C(=O)N(Cc1ccccc1)[C@H]2c1ccc(CO)cc1` .
Response given: -0.0756

----------
Biological target: Concanavalin-A (Canavalia ensiformis)
Test: ConA small-molecule binders, primary screen, artefact control for SMM control protein annotation, biochemical, small-molecule microarray, Alexa647 label, 635 nm (AID 1127);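 further: z combines 667 nm emission intensity with signal-to-noise across three replicate slides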
Settings: ConA-A647 binding fluorescence, higher = more signal
QUANTITY KIND: composite z-score
Reply: number alone, nothing else.

Known results for compounds:
CO[C@H]1O[C@H](CO)[C@@H](OC(=O)CCc2ccccc2)[C@@H]2OC(=O)[C@@H](Cc3ccc4ccccc4c3)C/C=C/C[C@H](Cc3ccc4ccccc4c3)C(=O)O[C@@H]12
0.208
O=C1c2ccccc2[C@](Cc2ccccc2I)(C(=O)NCCN2CCOCC2)[C@H](c2ccc(CO)cc2)N1Cc1ccccc1C(F)(F)F
1.13

Challenge: Missing value: composite z-score, Concanavalin-A (Canavalia ensiformis), entry `COc1ccc([Si](C)(C)[C@H]2[C@H](CC(=O)N(CCO)Cc3ccccc3)O[C@@]3(C(=O)N(Cc4cccc(N5CCCCC5=O)c4)c4ccccc43)[C@@H]2C)cc1` . Fill in?
Response given: 0.72

----------
Test: CREB reporter modulators under forskolin, primary screen, cell-based, PC12, CRE-LacZ reporter, forskolin-stimulated (AID 1146);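 further: PC12 cells with 6xCRE LacZ reporter stimulated by forskolin 10 µM; beta-galactosidase reporter signal reflecting CREB driven transcription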
Settings: luminescence, 4.5 h, higher = more signal, called active from +8 up or from −8 down
If the reported z-score equals or exceeds -0.06, assign 1 (yes). If not, assign 0 (no).

Solved cases below.
COc1ccc([Si](C)(C)[C@H]2[C@H](CC(=O)N(CCO)Cc3ccccc3)O[C@@]3(C(=O)N(Cc4ccc(N5C(=O)c6cccc7cccc5c67)cc4)c4ccccc43)[C@@H]2C)cc1
0 (no)
[N-]=[N+]=NCc1ccccc1[C@H]1OC(c2ccc(OCCCO)cc2)=N[C@@]1(CCS(=O)(=O)c1ccccc1)C(=O)NCCN1CCOCC1
0 (no)
COc1c(C)cc(-c2cc3c(c(CCc4ccccc4)n2)[Si](C(C)C)(C(C)C)O[C@H]3c2ccccc2)cc1C
1 (yes)
COCCOC(=O)N1C(=O)[C@@]2(c3cc(C#CCCO)ccc31)[C@H](C(=O)N1CCN(c3ncccn3)CC1)[C@H]1C(=O)O[C@H](c3ccccc3)[C@H](c3ccccc3)N1[C@@H]2c1ccc(OCCO)cc1
1 (yes)
O=C(NCCN1CCOCC1)[C@@H]1c2ccccc2C(=O)N(CC23CC4CC(CC(C4)C2)C3)[C@H]1c1ccc(CO)cc1
0 (no)

Challenge: Does the molecule `COC(=O)[C@@]1(Cc2ccc(F)cc2)[C@H]2c3cc(C(=O)N(C)C)n(CCF)c3C[C@H]2CN1C(=O)c1ccccc1` have recorded z-score that is -0.06 or more?
Response given: 1 (yes)

Challenge: Would you say `COc1ccc(CCNC(=O)[C@@H]2c3ccccc3C(=O)N(Cc3cc(F)cc(C(F)(F)F)c3)[C@H]2c2ccc(CO)cc2)cc1` shows z-score at minimum -0.06?
Response given: 0 (no)

Challenge: Please tell me: is the molecule O=C1C2C=CC(C(O)C3CC=CCC3)N(Nc3ccc([N+](=O)[O-])cc3)C2C(=O)N1c1ccccc1 (centres undefined) at or over -0.06 in terms of z-score?
Response given: 1 (yes)

Challenge: Check this molecule for z-score at or above -0.06: O=C1NC(=O)C2C1C=CC(C(O)C1CCCCC1)N2Nc1ccccn1 (centres undefined)
Response given: 1 (yes)

Challenge: Confirm if z-score reported for the molecule `COC(=O)[C@@]1(Cc2ccccc2)[C@H]2c3cc(C(=O)N(C)C)n(CCF)c3C[C@H]2CN1C(=O)c1ccccc1` is -0.06 or above.
Response given: 1 (yes)

----------
Experiment: S. cerevisiae growth modulation with rapamycin, primary screen, strain BY4716, OD600, 96 h (AID 1091); further: test concentration not given here
Details: called active from +8 up or from −8 down
Active and inactive are the calls of the source.
# valid calls are active, inactive; nothing else

C=C(C(=O)CC[C@@H](OC(=O)c1ccccc1-c1ccccc1C(=O)O)c1ccc(OCCO)cc1)C(C)C
inactive
CC(CO)N1C(=O)[C@@H]2[C@H]3C(=O)OCC=C[C@H]3OC23C=CCN(c2ccc4ccccc4c2)C(=O)[C@@H]13 (some centres undefined)
inactive
O=C1N(Cc2ccccc2)c2ccccc2C[C@@]12N=C(c1ccc(OCCCO)cc1)O[C@H]2c1ccccc1
inactive
CC(C)[Si]1(C(C)C)OCc2cc(-c3ccc(-c4ccc(Cl)c(Cl)c4)o3)nc(-c3ccc(Oc4ccccc4)cc3)c21
inactive

Challenge: Lab log entry: `CC(C)(C)OC(=O)CC[C@@]1(C(N)=O)N=C(c2ccc(OCCCO)cc2)O[C@@H]1c1ccccc1CN=[N+]=[N-]` — outcome as called in the assay?
Response given: inactive

Challenge: Could you check what this test reported for `O=C1C[C@@](C(=O)NCC(F)(F)F)(c2ccc([N+](=O)[O-])cc2)[C@@H](c2ccc(CO)cc2I)N1CC12CC3CC(CC(C3)C1)C2` ?
Response given: active

Challenge: Outcome? `COC(=O)[C@H]1N=C(c2ccc(OCCCO)cc2)O[C@H]1c1ccccc1N=[N+]=[N-]`
Response given: inactive

Challenge: For [N-]=[N+]=Nc1ccccc1C[C@@]1(C(=O)NCC(O)CO)N=C(c2ccc(OCCCO)cc2)O[C@@H]1c1ccccc1N=[N+]=[N-] (some centres undefined) , which call appears in the assay record?
Response given: inactive

Challenge: // param item: `COc1ccc([Si](C)(C)[C@@H]2[C@@H](CC(=O)N(CCO)Cc3ccccc3)O[C@]3(C(=O)N(Cc4cccc(I)c4)c4ccccc43)[C@H]2C)cc1` ; yields the recorded call
Response given: inactive

Challenge: So what was the verdict on `O=C(CS)NCCCCCCNC(=O)[C@H]1C[C@H]2C(=O)NCC(=O)N2[C@H]1c1cccc(OCCO)c1` in this test?
Response given: inactive

Challenge: How was `COC(=O)Cn1c(C(=O)N(C)C)cc2c1C[C@H]1CN(C(=O)c3ccccc3)[C@@](Cc3ccccc3)(C(=O)OC)[C@@H]21` classified in this test?
Response given: inactive

Challenge: In this assay, the call recorded for `COc1ccc(C(=O)Nc2ccc(CN3C(=O)[C@@]4(O[C@@H](CC(=O)N(CCO)Cc5ccccc5)[C@H]([Si](C)(C)c5ccc(OC)cc5)[C@H]4C)c4ccccc43)cc2)cc1` was what?
Response given: inactive

Challenge: What classification did `COCCOC(=O)N1C(=O)[C@@]2(c3cc(C#CCC(C(=O)OC)C(=O)OC)ccc31)[C@H](C(N)=O)[C@H]1C(=O)O[C@H](c3ccccc3)[C@H](c3ccccc3)N1[C@@H]2c1ccccc1OCCO` end up with in this test?
Response given: inactive

Challenge: Per the records of this test, what outcome belongs to `C[N+](C)(C)CCCC[C@@H]1NC(=O)[C@H]2C[C@@H](C(=O)O)[C@@H](c3ccc(O)cc3)N2C1=O` ?
Response given: inactive
